# key: entry, value: growth
system: SK-MEL-28 melanoma; test: NCI-60 one-dose screen, 48 h (100 = growth as untreated, 0 = no growth, -100 = all killed); conditions: 10 µM unless noted
This is part of a sample that, as a whole, favours compounds with a hit. Of some 83,000 tested, about 20% had one in any assay. Calls of active or inactive are those of the source. How the source made its calls: active means growth percent below 10; inactive means the rest.

compound | growth
COc1cc2nc(N3CCC[C@@H](NC4=CC(=O)c5ccccc5C4=O)C3)nc(N)c2cc1OC | 109% (inactive)
COc1cc2c(cc1OCCCCn1c(-c3cc(=O)c4ccccc4o3)nc3ccccc31)N=C[C@@H]1CCCN1C2=O | 124% (inactive)
O=C(Nc1ccc(F)cc1)c1cc([N+](=O)[O-])ccc1O | 55.9% (inactive)
CCN1C(=O)/C(=c2\sc3n(c2=O)C2C(NN=3)N(CC)C(=S)N2CC)c2ccccc21 (stereo not given) | 108% (inactive)
COc1cc2oc(-c3cccc(NC(=O)Nc4ccc5c(c4)OCO5)c3)cc(=O)c2c(OC)c1OC | 74.2% (inactive)
